- target: human TLR7 (Homo sapiens (Human))
- method_description: TLR7 inhibition reporter assay (HEK-Blue cells, SEAP reporter, gardiquimod stimulation)
- Format: cell-based
- assay_setup: HEK-Blue cells overexpressing human TLR7, gardiquimod 7.5 μM
readout_type: IC50 (nM)

Record COCCNCC(=O)N1CCC(c2ccc3[nH]c(-c4cc(C)nc(C)c4)c(C(C)C)c3c2)CC1 has human TLR7 (Homo sapiens (Human)) IC50 equal to 4.3

Record Cc1cc(-c2[nH]c3ccc(C4CCN(C(=O)CC(=O)Nc5nccs5)CC4)cc3c2C(C)C)cc(C)n1 has human TLR7 (Homo sapiens (Human)) IC50 equal to 18.2

1 = CNCC(=O)N1CCC(c2ccc3[nH]c(-c4cc(C)nc(C)c4)c(CC(F)F)c3c2)CC1
2 = Cc1cc(-c2[nH]c3ccc(C4CCN(C(=O)C5(C)CC5)CC4)cc3c2C(C)C)ccn1
3 = Cc1cc(-c2[nH]c3ccc(C4CCN(CC(=O)N5CCCCC5)CC4)cc3c2C(C)C)cc(C)n1
[ask] Task for the reader: rank each entry by its IC50, from the minimum upward. Kindly provide the labels arranged according to the requested ordering.
[reply] 3, 1, 2
(3: 6.4 nM, 1: 10 nM, 2: 48.6 nM)

a = CC(C)c1c(-c2cc(C3CC3)ncc2F)[nH]c2ccc(C3CCN(C(=O)CN(C)C)CC3)cc12
b = Cc1cc(-c2[nH]c3ccc(C4CCN(C(=O)C5CC(=O)N(C)C5)CC4)cc3c2C(C)C)ccn1 (stereo not drawn) [Example 619]
[ask] Of a and b , which one carries the higher reported IC50? Answer with the label corresponding to your selection.
[reply] b
(b: 51.1 nM, a: 12.1 nM)

A = Cc1cc(-c2[nH]c3ccc(C4CCN(CC(=O)N(C)C)CC4)cc3c2C(C)C)c(Cl)c(C)n1
B = CNCCN1CCC(c2ccc3[nH]c(-c4ccnc(C(=O)OC)c4)c(C)c3c2)CC1
C = CCNC(=O)CN1CCC(c2ccc3[nH]c(-c4cc(C)nc(C)c4)c(C(C)C)c3c2)CC1
D = CCc1c(-c2ccnc(C)c2)[nH]c2ccc(C3CCN(C(=O)C4CCN(C)CC4)CC3)cc12
E = Cc1cc(-c2[nH]c3ccc(C4CCN(CC(=O)N5CCCC(C)(C)C5)CC4)cc3c2C(C)C)cc(C)n1
[ask] Task for the reader: rank each entry by its IC50, from the minimum upward. Kindly provide the labels arranged according to the requested ordering.
[reply] C, A, E, D, B
(C: 5.2 nM, A: 7.7 nM, E: 15.4 nM, D: 43 nM, B: 231 nM)

1 = Cc1cc(-c2[nH]c3ccc(C4CCN(CC(F)F)CC4)cc3c2C(C)C)c(F)cn1
2 = Cc1cc(-c2[nH]c3ccc(C4CCN(S(=O)(=O)c5ccc(F)cc5)CC4)cc3c2C(C)C)ccn1
3 = CCC(CC)NCC(=O)N1CCC(c2ccc3[nH]c(-c4cc(C)nc(C)c4)c(C(C)C)c3c2)CC1
[ask] Task for the reader: rank each entry by its IC50, from the minimum upward. Kindly provide the labels arranged according to the requested ordering.
[reply] 3, 1, 2

###

- target: human TLR7 (Homo sapiens (Human), UniProt Q9NYK1)
- Sequence (Q9NYK1 27-1049): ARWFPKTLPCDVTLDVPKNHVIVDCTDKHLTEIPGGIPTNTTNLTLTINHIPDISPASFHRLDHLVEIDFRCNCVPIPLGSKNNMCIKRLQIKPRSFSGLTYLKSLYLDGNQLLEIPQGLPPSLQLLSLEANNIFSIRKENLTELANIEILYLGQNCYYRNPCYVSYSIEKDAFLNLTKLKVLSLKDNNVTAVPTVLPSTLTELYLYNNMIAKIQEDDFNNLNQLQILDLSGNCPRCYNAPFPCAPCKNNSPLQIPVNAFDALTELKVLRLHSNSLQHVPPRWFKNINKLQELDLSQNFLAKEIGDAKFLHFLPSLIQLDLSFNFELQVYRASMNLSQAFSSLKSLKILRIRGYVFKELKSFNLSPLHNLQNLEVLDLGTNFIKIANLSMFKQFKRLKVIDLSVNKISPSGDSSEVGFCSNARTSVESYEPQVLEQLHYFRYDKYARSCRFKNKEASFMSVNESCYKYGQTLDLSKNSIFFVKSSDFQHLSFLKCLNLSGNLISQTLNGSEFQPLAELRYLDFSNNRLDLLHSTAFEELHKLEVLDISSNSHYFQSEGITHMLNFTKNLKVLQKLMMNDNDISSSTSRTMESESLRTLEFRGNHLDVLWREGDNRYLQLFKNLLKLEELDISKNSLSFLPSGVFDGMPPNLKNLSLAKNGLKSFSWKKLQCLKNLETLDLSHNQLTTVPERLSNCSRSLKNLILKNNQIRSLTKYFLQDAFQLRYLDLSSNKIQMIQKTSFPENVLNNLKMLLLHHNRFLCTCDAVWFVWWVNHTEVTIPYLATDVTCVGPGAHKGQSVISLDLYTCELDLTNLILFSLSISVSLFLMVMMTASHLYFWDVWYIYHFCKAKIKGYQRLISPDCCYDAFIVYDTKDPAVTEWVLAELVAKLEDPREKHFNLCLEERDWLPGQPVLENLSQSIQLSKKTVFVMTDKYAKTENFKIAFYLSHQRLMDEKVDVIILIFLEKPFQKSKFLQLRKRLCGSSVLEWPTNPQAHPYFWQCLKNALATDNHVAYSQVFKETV
- method_description: TLR7 inhibition reporter assay (HEK-Blue cells, SEAP reporter, gardiquimod stimulation)
- Format: cell-based
- assay_setup: HEK-Blue cells overexpressing human TLR7, gardiquimod 7.5 μM
readout_type: IC50 (nM)

Use the examples below as a reference point.
The recorded IC50 for entry Cc1cc(-c2[nH]c3ccc(C4CCN(Cc5cccnc5)CC4)cc3c2C(C)C)cc(C)n1 [Example 433] equals 4.6

The recorded IC50 for entry Cc1cc(-c2[nH]c3ccc(C4CCN(Cc5nnc(C6CC6)o5)CC4)cc3c2C(C)C)c(C)cn1 [Example 697] equals 223

The recorded IC50 for entry Cc1cc(-c2[nH]c3ccc(C4CCN(Cc5ccn[nH]5)CC4)cc3c2C(C)C)cc(C)n1 [Example 441] equals 1.6

A = CCc1c(-c2ccnc(OC)c2)[nH]c2ccc(C3CCNCC3)cc12 [Example 61]
B = Cc1cc(-c2[nH]c3ccc(C4CCN(C(=O)CN5CCC(F)CC5)CC4)cc3c2C(C)C)cc(C)n1 [Example 388]
C = Cc1cc(-c2[nH]c3ccc(C4CCNCC4)cc3c2CC(F)F)ccn1 [Example 84]
D = CCN1CCC(c2ccc3[nH]c(-c4cc(C)nc(C)c4)c(C(C)C)c3c2)CC1 [Example 322]
E = CNCCN1CCC(c2ccc3[nH]c(-c4ccncc4OC)c(C)c3c2)CC1 [Example 754]
[ask] Task for the reader: rank each entry by its IC50, from the minimum upward. Kindly provide the labels arranged according to the requested ordering.
[reply] D, B, C, A, E

The reported numbers originate from patent US10660877B2.
